system: 935938-334-R-J1-PDC spheroids with HUVEC/MSC, viability; experiment: Anticancer human tumor 935938-334-R-J1-PDC patient-derived small intestine adenocarcinoma cell line growth inhibition [PI3K]; conditions: curve of first compound; second compound 10 µM
Entries and their IC50 values follow.

Some entries whose results are on file:
# Compound, Target system, IC50
measured = [
    ("Cn1cnc2c(F)c(Nc3ccc(Br)cc3Cl)c(C(=O)NOCCO)cc21 + Cc1nc(NC(=O)N2CCCC2C(N)=O)sc1-c1ccnc(C(C)(C)C(F)(F)F)c1", "935938-334-R-J1-PDC spheroids with HUVEC/MSC, viability", "< 9.49 nM"),
    ("CCN1CCN(Cc2ccc(Nc3ncc(F)c(-c4cc(F)c5nc(C)n(C(C)C)c5c4)n3)nc2)CC1 + Cc1nc(NC(=O)N2CCCC2C(N)=O)sc1-c1ccnc(C(C)(C)C(F)(F)F)c1", "935938-334-R-J1-PDC spheroids with HUVEC/MSC, viability", "< 3.16 nM"),
    ("C#Cc1c(F)ccc2cc(O)cc(-c3ncc4c(N5CC6CCC(C5)N6)nc(OCC56CCCN5CC(F)C6)nc4c3F)c12 (centres undefined) + CC(Nc1ncnc2nc[nH]c12)c1cc2cccc(Cl)c2c(=O)n1-c1ccccc1", "935938-334-R-J1-PDC spheroids with HUVEC/MSC, viability", "663 nM"),
    ("C[C@@H](NC(=O)c1ncnc(N)c1Cl)c1ncc(C(=O)Nc2cc(C(F)(F)F)c(Cl)cn2)s1 + CC(Nc1ncnc2nc[nH]c12)c1cc2cccc(Cl)c2c(=O)n1-c1ccccc1", "935938-334-R-J1-PDC spheroids with HUVEC/MSC, viability", "> 10000 nM"),
    ("C#Cc1c(F)ccc2cc(O)cc(-c3ncc4c(N5CC6CCC(C5)N6)nc(OCC56CCCN5CC(F)C6)nc4c3F)c12 (centres undefined) + Cc1nc(NC(=O)N2CCCC2C(N)=O)sc1-c1ccnc(C(C)(C)C(F)(F)F)c1", "935938-334-R-J1-PDC spheroids with HUVEC/MSC, viability", "< 31.6 nM"),
    ("C=CC(=O)N1CCN(c2nc(=O)n(-c3c(C)ccnc3C(C)C)c3nc(-c4c(O)cccc4F)c(F)cc23)C(C)C1 (centres undefined) + Cc1nc(NC(=O)N2CCCC2C(N)=O)sc1-c1ccnc(C(C)(C)C(F)(F)F)c1", "935938-334-R-J1-PDC spheroids with HUVEC/MSC, viability", "< 31.6 nM"),
]

State, in one line, measured IC50 of CNC(=O)c1ccc(N2C(=S)N(c3ccc(C#N)c(C(F)(F)F)c3)C(=O)C2(C)C)cc1F + Cc1nc(NC(=O)N2CCCC2C(N)=O)sc1-c1ccnc(C(C)(C)C(F)(F)F)c1 162 nM

State, in one line, measured IC50 of CCCS(=O)(=O)Nc1ccc(F)c(C(=O)c2c[nH]c3ncc(-c4ccc(Cl)cc4)cc23)c1F + Cc1nc(NC(=O)N2CCCC2C(N)=O)sc1-c1ccnc(C(C)(C)C(F)(F)F)c1 31.6 nM

State, in one line, measured IC50 of Cn1ncnc1[C@H]1c2n[nH]c(=O)c3cc(F)cc(c23)N[C@@H]1c1ccc(F)cc1 + Cc1nc(NC(=O)N2CCCC2C(N)=O)sc1-c1ccnc(C(C)(C)C(F)(F)F)c1 < 0.316 nM

----------
system: 935938-334-R-J1-PDC spheroids with HUVEC/MSC, viability; test: Anticancer human tumor 935938-334-R-J1-PDC cell line growth inhibition [PI3K]; conditions: curve of first compound; second compound 1 µM;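 further: compound exposure lasted seven days before viability was read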
Measurement label: IC50

Some entries whose results are on file:
# Compound, Target system, Measurement label, Observed result
records = [
    ("CC(Cn1ccc(-c2ccc(C#N)c(Cl)c2)n1)NC(=O)c1cc(C(C)O)[nH]n1 (stereo not drawn) + Cc1nc(NC(=O)N2CCCC2C(N)=O)sc1-c1ccnc(C(C)(C)C(F)(F)F)c1", "935938-334-R-J1-PDC spheroids with HUVEC/MSC, viability", "IC50", "> 10 µM"),
    ("CC1(C)CCC(Nc2ncc(C(F)(F)F)c(-c3c[nH]c4c(P(C)(C)=O)c(C#N)ccc34)n2)CN1 (stereo not drawn) + CC(Nc1ccc2c(c1)OCCn1cc(N3C(=O)OCC3C(F)F)nc1-2)C(N)=O", "935938-334-R-J1-PDC spheroids with HUVEC/MSC, viability", "IC50", "< 0.0316 µM"),
]

Then this compound:
State, in one line, measured IC50 of C=CC(=O)N1CCN(c2nc(=O)n(-c3c(C)ccnc3C(C)C)c3nc(-c4c(O)cccc4F)c(F)cc23)C(C)C1 (stereo not drawn) + CC(Nc1ncnc2nc[nH]c12)c1cc2cccc(Cl)c2c(=O)n1-c1ccccc1 > 10 µM

----------
test system: 935938-334-R-J1-PDC spheroids with HUVEC/MSC, viability; assay: Anticancer human tumor 935938-334-R-J1-PDC cell line growth inhibition [PI3K]; details: second compound 0.1 µM; first compound 0.1 µM; stronger effect = lower value;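 further: compound exposure lasted seven days before viability was read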;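 on viability, T/C: percent of vehicle DMSO treated spheroid viability so 100% = untreated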
Entries and their viability, T/C values follow.
Number in %, nothing else.

Determine reported viability, T/C for C[C@@H](NC(=O)c1ncnc(N)c1Cl)c1ncc(C(=O)Nc2cc(C(F)(F)F)c(Cl)cn2)s1 + CC(Nc1ncnc2nc[nH]c12)c1cc2cccc(Cl)c2c(=O)n1-c1ccccc1 ; test system: 935938-334-R-J1-PDC spheroids with HUVEC/MSC, viability. 138

Determine reported viability, T/C for C[C@@H](NC(=O)c1ncnc(N)c1Cl)c1ncc(C(=O)Nc2cc(C(F)(F)F)c(Cl)cn2)s1 + CC(Nc1ccc2c(c1)OCCn1cc(N3C(=O)OCC3C(F)F)nc1-2)C(N)=O ; test system: 935938-334-R-J1-PDC spheroids with HUVEC/MSC, viability. 98.4

Determine reported viability, T/C for C#Cc1c(F)ccc2cc(O)cc(-c3ncc4c(N5CC6CCC(C5)N6)nc(OCC56CCCN5CC(F)C6)nc4c3F)c12 (configuration not stated) + COc1c(OCCCN2CCOCC2)ccc2c3n(c(=NC(=O)c4cnc(N)nc4)nc12)CCN3 ; test system: 935938-334-R-J1-PDC spheroids with HUVEC/MSC, viability. 46.2

Determine reported viability, T/C for CNC(=O)c1ccc(N2C(=S)N(c3ccc(C#N)c(C(F)(F)F)c3)C(=O)C2(C)C)cc1F + Cc1nc(NC(=O)N2CCCC2C(N)=O)sc1-c1ccnc(C(C)(C)C(F)(F)F)c1 ; test system: 935938-334-R-J1-PDC spheroids with HUVEC/MSC, viability. 88.7

Determine reported viability, T/C for CC1(C)CCC(CN2CCN(c3ccc(C(=O)NS(=O)(=O)c4ccc(NCC5CCOCC5)c([N+](=O)[O-])c4)c(Oc4cnc5[nH]ccc5c4)c3)CC2)=C(c2ccc(Cl)cc2)C1 + CC(Nc1ccc2c(c1)OCCn1cc(N3C(=O)OCC3C(F)F)nc1-2)C(N)=O ; test system: 935938-334-R-J1-PDC spheroids with HUVEC/MSC, viability. 90.9

----------
system: 935938-334-R-J1-PDC spheroids with HUVEC/MSC, viability; experiment: Anticancer human tumor 935938-334-R-J1-PDC cell line growth inhibition [PI3K]; details: second compound 0.0316 µM; first compound 1 µM; stronger effect = lower value;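 further: compound exposure lasted seven days before viability was read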;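 on viability, T/C: percent of vehicle DMSO treated spheroid viability so 100% = untreated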
Flag rule - viability, T/C less than 60% flags y; the remaining entries get n.

// known answers, use as guide
# Compound, Class assignment
rows = [
    ("CC1(C)CCC(Nc2ncc(C(F)(F)F)c(-c3c[nH]c4c(P(C)(C)=O)c(C#N)ccc34)n2)CN1 (stereo not given) + CC(Nc1ccc2c(c1)OCCn1cc(N3C(=O)OCC3C(F)F)nc1-2)C(N)=O", "y"),
    ("C[C@@H](NC(=O)c1ncnc(N)c1Cl)c1ncc(C(=O)Nc2cc(C(F)(F)F)c(Cl)cn2)s1 + CC(Nc1ncnc2nc[nH]c12)c1cc2cccc(Cl)c2c(=O)n1-c1ccccc1", "n"),
    ("C=CC(=O)N1CCN(c2nc(=O)n(-c3c(C)ccnc3C(C)C)c3nc(-c4c(O)cccc4F)c(F)cc23)C(C)C1 (stereo not given) + CC(Nc1ncnc2nc[nH]c12)c1cc2cccc(Cl)c2c(=O)n1-c1ccccc1", "n"),
]

Would you kindly look at the next entry?
Please let me know if Cn1ncc(Cl)c1-c1cc(C(=O)NC(CN)Cc2cccc(F)c2)sc1Cl (stereo not given) + COc1c(OCCCN2CCOCC2)ccc2c3n(c(=NC(=O)c4cnc(N)nc4)nc12)CCN3 shows viability, T/C below 60%. y

----------
test system: 935938-334-R-J1-PDC spheroids with HUVEC/MSC, viability; test: Anticancer human tumor 935938-334-R-J1-PDC cell line growth inhibition [PI3K]; details: second compound 0.1 µM; first compound 0.0316 µM; stronger effect = lower value;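 further: compound exposure lasted seven days before viability was read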;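 on viability, T/C: percent of vehicle DMSO treated spheroid viability so 100% = untreated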
Entries and their viability, T/C values follow.
Number in %, nothing else.

Some entries whose results are on file:
# Compound, viability, T/C / %
rows = [
    ("CC(C)NCC(C(=O)N1CCN(c2ncnc3c2C(C)CC3O)CC1)c1ccc(Cl)cc1 (configuration not stated) + CC(Nc1ncnc2nc[nH]c12)c1cc2cccc(Cl)c2c(=O)n1-c1ccccc1", 91.7),
    ("Cn1ncc(Cl)c1-c1cc(C(=O)NC(CN)Cc2cccc(F)c2)sc1Cl (configuration not stated) + CC(Nc1ncnc2nc[nH]c12)c1cc2cccc(Cl)c2c(=O)n1-c1ccccc1", 92.6),
    ("C#Cc1c(F)ccc2cc(O)cc(-c3ncc4c(N5CC6CCC(C5)N6)nc(OCC56CCCN5CC(F)C6)nc4c3F)c12 (configuration not stated) + CC(Nc1ccc2c(c1)OCCn1cc(N3C(=O)OCC3C(F)F)nc1-2)C(N)=O", 89.1),
]

State, in one line, measured viability, T/C of CC(C)NCC(C(=O)N1CCN(c2ncnc3c2C(C)CC3O)CC1)c1ccc(Cl)cc1 (configuration not stated) + Cc1nc(NC(=O)N2CCCC2C(N)=O)sc1-c1ccnc(C(C)(C)C(F)(F)F)c1 89.2

State, in one line, measured viability, T/C of CNC(=O)c1ccc(N2C(=S)N(c3ccc(C#N)c(C(F)(F)F)c3)C(=O)C2(C)C)cc1F + CC(Nc1ccc2c(c1)OCCn1cc(N3C(=O)OCC3C(F)F)nc1-2)C(N)=O 80.4

State, in one line, measured viability, T/C of CCN1CCN(Cc2ccc(Nc3ncc(F)c(-c4cc(F)c5nc(C)n(C(C)C)c5c4)n3)nc2)CC1 + CC(Nc1ncnc2nc[nH]c12)c1cc2cccc(Cl)c2c(=O)n1-c1ccccc1 73.8

State, in one line, measured viability, T/C of CNC(=O)c1ccc(N2C(=S)N(c3ccc(C#N)c(C(F)(F)F)c3)C(=O)C2(C)C)cc1F + Cc1nc(NC(=O)N2CCCC2C(N)=O)sc1-c1ccnc(C(C)(C)C(F)(F)F)c1 81.7
